test system: OVCAR-3 ovarian; test: NCI-60 one-dose screen, 48 h (100 = growth as untreated, 0 = no growth, -100 = all killed); conditions: 10 µM unless noted
Compounds without any hit were thinned out: in the full panel of roughly 83,000, 20% have a hit.
endpoint_name: growth (%)
Numbers only; they are read as %.

Would you please look over these solved cases?
{"columns": ["compound", "display_unit", "growth"],
 "data": [
  ["COc1ccc(C(=O)/C=C/c2ccc(OCc3ccc(Cl)cc3)c(OC)c2)cc1OC", "%", 78.5],
  ["Cc1ccc(C(=O)Nc2cccc(C(F)(F)F)c2)cc1Nc1nc(-c2cnccn2)nc2c1cnn2C", "%", 97.9],
  ["COc1ccc(/C=N/Nc2ccnc3cc(Cl)ccc23)cc1Cl", "%", -92.2],
  ["CCOC(=O)c1sc(NCC(=O)Nc2cccc([N+](=O)[O-])c2)c(C(=O)OCC)c1C", "%", -4.13],
  ["C#Cc1nc(C2=C(C)C(OC(=O)CCC(=O)O)CC2)cs1 (stereo not given)", "%", 121]
]}

[in] Dear colleague, I am looking for the recorded growth of the following compound: O=C(CCN1C(=O)/C(=C/c2ccccc2)SC1=S)N1CCOCC1
[out] 110

[in] Dear colleague, I am looking for the recorded growth of the following compound: O=C(N/N=C/c1ccc(Cl)s1)c1[nH]c2ccc(Br)cc2c1-c1ccccc1
[out] 20.8

[in] Dear colleague, I am looking for the recorded growth of the following compound: CC(=O)Nc1cc(F)cc(-c2ccc3[nH]cc(-c4ccccc4)c3n2)c1
[out] 32.5

[in] Dear colleague, I am looking for the recorded growth of the following compound: COc1ccc(-c2nn3c(-c4ccccc4F)nnc3s2)cc1
[out] 49.6

[in] Dear colleague, I am looking for the recorded growth of the following compound: Nc1nc(N)c2c(n1)NC(c1ccc(C(F)(F)F)cc1)CC(c1ccc(Nc3nc(NCCO)nc(Nc4ccc(Cl)cc4)n3)cc1)=N2 (stereo not given)
[out] -20.9

---

system: MALME-3M melanoma; assay: NCI-60 one-dose screen, 48 h; conditions: 10 µM unless noted
This is part of a sample that, as a whole, favours compounds with a hit. Of some 83,000 tested, about 20% had one in any assay. The source made the active and inactive calls. Rule for the calls: active = growth percent below 10; inactive = the rest.
# valid calls are active, inactive; nothing else

Would you please look over these solved cases?
{"columns": ["compound", "assay_target", "category"],
 "data": [
  ["O=C(CN1CCOCC1)NNc1ncnc2ccccc12", "MALME-3M melanoma", "active"],
  ["O=C(CSc1nnc(-c2ccc3nc(-c4ccc(Cl)cc4)[nH]c3c2)o1)Nc1ccc(C(=O)/C=C/c2ccc(Cl)cc2)cc1", "MALME-3M melanoma", "inactive"],
  ["COc1cc(/C=C/C(=O)c2ccccc2)ccc1Oc1nc(NCCO)nc(N2CCOCC2)n1", "MALME-3M melanoma", "inactive"],
  ["CS(=O)(=O)c1ccc(-n2cc(/C=C/C(=O)c3ccc(NC(=O)CO[N+](=O)[O-])cc3)c(-c3ccc(Cl)cc3)n2)cc1", "MALME-3M melanoma", "inactive"]
]}

[in] What outcome does the record of this test show for CC(=O)Oc1ccccc1C(=O)Nc1ccc(C(=O)/C=C/c2cccs2)cc1 ?
[out] inactive

[in] What outcome does the record of this test show for O=C(c1ccc(Cl)cc1)C1[C@H](c2ccc(Cl)cc2)[C@@H](c2ccccc2)NC12C(=O)Nc1ccc(Br)cc12 (stereo partly drawn) ?
[out] inactive

[in] What outcome does the record of this test show for CCOC(=O)c1c(NC(=O)c2cccc(C(F)(F)F)c2)sc2cc(O)ccc12 ?
[out] inactive

[in] What outcome does the record of this test show for Cn1cc(-c2cc(N)n3nc(-c4cn(C)c5ccc(F)cc45)cc3n2)c2cc(F)ccc21 ?
[out] inactive

[in] What outcome does the record of this test show for CN1CCN(Cc2ccc(NC(=O)c3cncc(C#Cc4cnc5ccc(N6CCSCC6)nn45)c3)cc2C(F)(F)F)CC1 ?
[out] active

[in] What outcome does the record of this test show for COc1ccc(C(=O)/C=C/c2ccc(OCc3ccc(C)cc3)c(OC)c2)cc1OC ?
[out] inactive

[in] What outcome does the record of this test show for O=C1c2c(c3c4cc(Br)ccc4[nH]c3c3ccc4ccccc4c23)C(=O)N1CCO ?
[out] inactive

---

test system: SR leukemia; assay: NCI-60 one-dose screen, 48 h; details: 10 µM unless noted
About 83,000 compounds went through this panel and 20% of them were active in at least one assay; those are over-represented in the sample as a whole. Active and inactive are the calls of the source. The calls were made as follows: active = growth percent below 10; inactive = the rest.
# valid calls are 1 for active, -1 for inactive; nothing else

Would you please look over these solved cases?
{"columns": ["compound", "category"],
 "data": [
  ["Cc1cc(C(NC(=O)CCCCCNc2cccc3c2C(=O)N(C2CCC(=O)NC2=O)C3=O)c2cccnc2)c(O)c2ncccc12 (stereo not given)", -1],
  ["COc1cc2nc(-c3ccc(C)cc3)cc(OCCCNCC3CCCO3)c2cc1OC (stereo not given)", -1],
  ["C#Cc1nc(C2=C(C)C(OC(=O)CCC(=O)O)CC2)cs1 (stereo not given)", -1]
]}

[in] What outcome does the record of this test show for O=C1Nc2cc(Cl)ccc2/C1=C\c1ccc(OCc2ccc([N+](=O)[O-])cc2)cc1 ?
[out] -1

[in] What outcome does the record of this test show for CCCC(=O)NC(c1ccc(N(CC)CC)cc1)c1cc(C)c2cccnc2c1O (stereo not given) ?
[out] 1

---

Reported growth is given for each of the following molecules.
system: 786-0 renal; experiment: NCI-60 one-dose screen, 48 h (100 = growth as untreated, 0 = no growth, -100 = all killed); conditions: 10 µM unless noted
Compounds without any hit were thinned out: in the full panel of roughly 83,000, 20% have a hit.
Numbers only; they are read as %.

{"columns": ["structure_string", "endpoint_name", "readout_number"],
 "data": [
  ["C[C@@H](Nc1c(C#N)cnc2ccc(-c3cnc(N)nc3)cc12)c1ccccc1", "growth", 13.5]
]}

[in] Dear colleague, I am looking for the recorded growth of the following molecule: N=C1CC(=O)NN1C(=O)CSc1nc2sc3c(c2c(=O)n1-c1ccc(Cl)cc1)CCCC3
[out] 94.2

[in] Dear colleague, I am looking for the recorded growth of the following molecule: CC(=O)Nc1cc(F)cc(-c2ccc3[nH]cc(-c4ccccc4)c3n2)c1
[out] 1.48

[in] Dear colleague, I am looking for the recorded growth of the following molecule: O=C1[C@H]2Cc3c([nH]c4ccccc34)[C@@H](c3ccc(Br)cc3)N2C(=O)CN1C1CCN(Cc2ccccc2)CC1
[out] 41.1

[in] Dear colleague, I am looking for the recorded growth of the following molecule: COc1cc(/C=C/C(=O)c2cc(OC)c(OC)c(OC)c2)ccc1OCc1ccccc1
[out] 40.1

---

system: RPMI-8226 leukemia; test: NCI-60 one-dose screen, 48 h (100 = growth as untreated, 0 = no growth, -100 = all killed); conditions: 10 µM unless noted
This is part of a sample that, as a whole, favours compounds with a hit. Of some 83,000 tested, about 20% had one in any assay.
Reported growth is given for each of the following compounds.
Numbers only; they are read as %.

{"columns": ["compound", "growth (%)"],
 "data": [
  ["C/C(=N\\NC(N)=O)c1c(O)sc(=O)[nH]c1=O", 102],
  ["CCOC(=O)c1c(NC(=O)c2cccc(C(F)(F)F)c2)sc2cc(O)ccc12", 73.9],
  ["COc1cc(-c2ccc3ncnc(NC(C)c4ccccc4)c3c2)cnc1OC (stereo not given)", 26.5]
]}

Now let's try a different one.
[in] Dear colleague, I am looking for the recorded growth of the following compound: Cc1nc(-c2cc3ccccc3oc2=O)ccc1C(=O)/C=C/c1ccccn1
[out] -36.3

---

tested on: 786-0 renal; assay: NCI-60 one-dose screen, 48 h (100 = growth as untreated, 0 = no growth, -100 = all killed); settings: 10 µM unless noted
This is part of a sample that, as a whole, favours compounds with a hit. Of some 83,000 tested, about 20% had one in any assay. Activity calls are given as the source filed them. How the source made its calls: active means growth percent below 10; inactive means the rest.
Reported growth is given for each of the following compounds.

Would you please look over these solved cases?
{"columns": ["compound", "result"],
 "data": [
  ["COc1cccc(-c2nn(-c3ccccc3)cc2-c2ccnc(N3CCN(C(=O)Nc4ccc(F)cc4)CC3)c2)c1", "68.1% (inactive)"],
  ["Cc1ccc2c(n1)C(=O)C(Cl)=C(Nc1cccc(C(C)C)c1)C2=O", "68.4% (inactive)"],
  ["Nc1cc(-c2c[nH]c3ccc(F)cc23)nc2cc(-c3c[nH]c4ccc(F)cc34)nn12", "66.3% (inactive)"]
]}

[in] Can you look up growth on 786-0 renal for COC(=O)C1CN(S(=O)(=O)/N=C2\NC(=O)NC2=C(Cl)Cl)C1 ?
[out] 104% (inactive)

[in] Can you look up growth on 786-0 renal for N#Cc1c(-c2ccc(Cl)cc2)nc(SCc2ccc(F)cc2)nc1N1CCNCC1 ?
[out] 62.5% (inactive)

[in] Can you look up growth on 786-0 renal for COc1ccc([C@@H]2c3[nH]c4ccccc4c3CC3C(=O)N(C4CCN(Cc5c(F)cccc5F)CC4)CC(=O)N32)c(OC)c1 (some centres undefined) ?
[out] -35.9% [5.26 µM] (active)
